Biological target: GST-Dm-Relish (Drosophila melanogaster, UniProt Q94527 99-473)
Sequence: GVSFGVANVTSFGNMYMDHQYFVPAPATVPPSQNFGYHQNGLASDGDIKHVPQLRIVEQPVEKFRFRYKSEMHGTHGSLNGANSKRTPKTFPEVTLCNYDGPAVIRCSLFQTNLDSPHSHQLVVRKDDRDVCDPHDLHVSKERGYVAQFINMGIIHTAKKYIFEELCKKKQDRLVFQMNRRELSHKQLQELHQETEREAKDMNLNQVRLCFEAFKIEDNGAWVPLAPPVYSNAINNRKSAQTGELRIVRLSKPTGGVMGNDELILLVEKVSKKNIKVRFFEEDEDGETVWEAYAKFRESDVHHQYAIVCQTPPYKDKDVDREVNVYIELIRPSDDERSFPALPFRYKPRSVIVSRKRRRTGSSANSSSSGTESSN
Test: protein-binding microarray (PBM); PBM: ~300 nM protein, 6 mM HEPES pH 7.8, 80 mM KCl, 0.5 mM EDTA, 0.5 mM EGTA, 6% glycerol, 35 ng/ul poly-dIdC, 1% milk, 1 h, room temperature; Ap Aiptasia and Nv Nematostella (sea anemones) / Co Capsaspora / Aq Amphimedon (sponge) / Dm Drosophila / Hu human; RHD is the Rel homology domain; high values mean tight binding
Conditions: dsDNA, one strand shown
Listed next: entries and their corresponding binding signal.
RECORDED_ENDPOINT: binding signal

[[record]]
construct_sequence = "CCGATTAACATCAGGGACTCCCCTGATGTTAATCGGGTCTTGATTCGCTTGACGCTGCTG"
recorded_endpoint = "binding signal"
readout_value = "10.3 z-score"

[[record]]
construct_sequence = "CCGATTAACATCACACCCCCCCCTGATGTTAATCGGGTCTTGATTCGCTTGACGCTGCTG"
recorded_endpoint = "binding signal"
readout_value = "4.99 z-score"

[[record]]
construct_sequence = "CCGATTAACATCAAATATACCCCTGATGTTAATCGGGTCTTGATTCGCTTGACGCTGCTG"
recorded_endpoint = "binding signal"
readout_value = "2.64 z-score"

[[record]]
construct_sequence = "CCGATTAACATCAAGCATCCCCCTGATGTTAATCGGGTCTTGATTCGCTTGACGCTGCTG"
recorded_endpoint = "binding signal"
readout_value = "3.89 z-score"

[[record]]
construct_sequence = "CCGATTAACATCAGGGTTTTACCTGATGTTAATCGGGTCTTGATTCGCTTGACGCTGCTG"
recorded_endpoint = "binding signal"
readout_value = "6.46 z-score"

[[record]]
construct_sequence = "CCGATTAACATCAAAAAAATTCCTGATGTTAATCGGGTCTTGATTCGCTTGACGCTGCTG"
recorded_endpoint = "binding signal"
readout_value = "3.84 z-score"

[[record]]
construct_sequence = "CCGATTAACATCACGGAATTGCCTGATGTTAATCGGGTCTTGATTCGCTTGACGCTGCTG"
recorded_endpoint = "binding signal"
readout_value = "1.01 z-score"

[[record]]
construct_sequence = "CCGATTAACATCAGAAGACCCCCTGATGTTAATCGGGTCTTGATTCGCTTGACGCTGCTG"
recorded_endpoint = "binding signal"
readout_value = "4.9 z-score"

[[record]]
construct_sequence = "CCGATTAACATCAATTTCCCGCCTGATGTTAATCGGGTCTTGATTCGCTTGACGCTGCTG"
recorded_endpoint = "binding signal"
readout_value = "1.31 z-score"

[[record]]
construct_sequence = "CCGATTAACATCACACAACCCCCTGATGTTAATCGGGTCTTGATTCGCTTGACGCTGCTG"
recorded_endpoint = "binding signal"
readout_value = "4.91 z-score"

[[record]]
construct_sequence = "CCGATTAACATCACCTTCCCCCCTGATGTTAATCGGGTCTTGATTCGCTTGACGCTGCTG"
recorded_endpoint = "binding signal"
readout_value = "3.79 z-score"

